Recorded values, source patent US9266964.

- system: T1, human plasma kallikrein (human, UniProt P03952 20-390; P03952 391-638)
- T1 construct: two disulfide-linked chains; also called pKal; human pKal
- T1 sequence (P03952 20-390, chain 1 of 2): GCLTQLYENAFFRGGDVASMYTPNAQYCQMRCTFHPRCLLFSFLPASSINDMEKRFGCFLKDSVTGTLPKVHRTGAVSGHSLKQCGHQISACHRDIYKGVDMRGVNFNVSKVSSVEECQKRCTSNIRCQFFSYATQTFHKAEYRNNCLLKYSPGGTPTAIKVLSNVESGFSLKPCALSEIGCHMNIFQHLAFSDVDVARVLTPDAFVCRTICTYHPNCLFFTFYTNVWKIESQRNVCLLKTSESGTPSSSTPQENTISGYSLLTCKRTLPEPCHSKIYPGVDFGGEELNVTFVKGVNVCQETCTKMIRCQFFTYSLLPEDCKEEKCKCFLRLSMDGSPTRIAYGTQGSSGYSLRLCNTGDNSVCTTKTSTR
- T1 sequence (P03952 391-638, chain 2 of 2): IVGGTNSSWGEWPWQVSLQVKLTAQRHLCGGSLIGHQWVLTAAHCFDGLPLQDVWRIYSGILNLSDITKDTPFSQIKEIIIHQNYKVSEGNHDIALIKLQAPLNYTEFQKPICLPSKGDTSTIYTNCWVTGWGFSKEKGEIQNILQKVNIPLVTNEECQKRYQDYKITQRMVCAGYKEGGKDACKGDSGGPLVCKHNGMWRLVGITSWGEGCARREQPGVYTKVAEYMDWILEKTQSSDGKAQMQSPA
- assay.remarks: Ki,app, inhibition of human pKal enzyme activity
quantity.measured: Ki
Field: value (include unit after the number)

Looking up M210-G10 (Fab, V domains shown, Tested as Fab; printed HC runs into CH1) VH: EVQLLESGGGLVQPGGSLRLSCAASGFTFSHYLMTWVRQAPGKGLEWVSYISPSGGHTIYADSVKGRFTISRDNSKNTLYLQMNSLRAEDTAVYYCARVARGIAARSRTSYLDFWGQGTLVTVSS VL: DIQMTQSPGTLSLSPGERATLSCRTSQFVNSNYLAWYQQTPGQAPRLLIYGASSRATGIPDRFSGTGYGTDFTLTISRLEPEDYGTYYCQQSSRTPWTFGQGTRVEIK , I see its Ki listed as 0.4 nM

Looking up M206-H08 (Fab, V domains shown, Tested as Fab; printed HC runs into CH1) VH: EVQLLESGGGLVQPGGSLRLSCAASGFTFSDYMMAWVRQAPGKGLEWVSSIVPSGGHTHYADSVKGRFTISRDNSKNTLYLQMNSLRAEDTAVYYCARVARGIAARSRTSYFDYWGQGTLVTVSS VL: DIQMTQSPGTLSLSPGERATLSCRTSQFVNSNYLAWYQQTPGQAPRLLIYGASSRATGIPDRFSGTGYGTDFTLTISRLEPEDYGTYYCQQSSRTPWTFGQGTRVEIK , I see its Ki listed as 0.17 nM
